System: Pseudomonas aeruginosa
Assay: Compound tested for the antimicrobial activity against Pseudomonas aeruginosa strain 5
Format: functional
Peptide text beside a SMILES is read from it.
# MIC per entry

compound="CC(C)C[C@H](NC(=O)[C@H](CCCCN)NC(=O)[C@H](CC(C)C)NC(=O)[C@H](Cc1ccccc1)NC(=O)[C@H](CCCCN)NC(=O)[C@H](CCCCN)NC(=O)[C@H](C)NC(=O)[C@H](Cc1ccccc1)NC(=O)[C@H](CCCCN)NC(=O)[C@H](CCCCN)NC(=O)[C@H](Cc1ccccc1)NC(=O)[C@H](CC(C)C)NC(=O)[C@@H](N)CCCCN)C(=O)N[C@@H](Cc1ccccc1)C(=O)N[C@@H](CCCCN)C(=O)N[C@@H](C)C(=O)N[C@@H](Cc1c[nH]c2ccccc12)C(=O)O (H-KLFKKFAKKFLKLFKAW-OH)" measurementname=MIC result="12.5 µg/mL"

# lookup: MIC of CC(C)C[C@H](NC(=O)[C@H](Cc1c[nH]c2ccccc12)NC(=O)[C@H](CCCCN)NC(=O)[C@H](CCCCN)NC(=O)[C@@H](N)Cc1c[nH]c2ccccc12)C(=O)N[C@@H](Cc1c[nH]c2ccccc12)C(=O)N[C@@H](C)C(=O)N[C@@H](CCCCN)C(=O)N[C@@H](Cc1c[nH]c2ccccc12)C(=O)O (H-WKKWLWAKW-OH) 50 µg/mL

Form field: reported MIC of CC(C)C[C@H](NC(=O)[C@H](CCCCN)NC(=O)[C@H](CC(C)C)NC(=O)[C@H](Cc1c[nH]c2ccccc12)NC(=O)[C@H](CCCCN)NC(=O)[C@H](CCCCN)NC(=O)[C@H](C)NC(=O)[C@H](Cc1c[nH]c2ccccc12)NC(=O)[C@H](CCCCN)NC(=O)[C@H](CCCCN)NC(=O)[C@H](Cc1c[nH]c2ccccc12)NC(=O)[C@H](CC(C)C)NC(=O)[C@@H](N)CCCCN)C(=O)N[C@@H](Cc1c[nH]c2ccccc12)C(=O)N[C@@H](CCCCN)C(=O)N[C@@H](C)C(=O)N[C@@H](Cc1c[nH]c2ccccc12)C(=O)O (H-KLWKKWAKKWLKLWKAW-OH) 12.5 µg/mL

Sample CC(C)C[C@H](NC(=O)[C@H](C)NC(=O)[C@H](CCCCN)NC(=O)[C@H](C)NC(=O)[C@H](CC(C)C)NC(=O)[C@H](CCCCN)NC(=O)[C@H](C)NC(=O)[C@H](CC(C)C)NC(=O)[C@H](CCCCN)NC(=O)[C@H](C)NC(=O)[C@H](CC(C)C)NC(=O)[C@H](CCCCN)NC(=O)[C@H](CCCCN)NC(=O)[C@H](C)NC(=O)[C@H](CC(C)C)NC(=O)[C@@H](N)CCCCN)C(=O)O (H-KLAKKLAKLAKLAKAL-OH) — what was its MIC? 6.25 µg/mL

Fill in: MIC of CC(C)C[C@H](NC(=O)[C@H](CCCCN)NC(=O)[C@H](CC(C)C)NC(=O)[C@H](Cc1c[nH]c2ccccc12)NC(=O)[C@H](CCCCN)NC(=O)[C@@H](N)CCCCN)C(=O)N[C@@H](Cc1c[nH]c2ccccc12)C(=O)N[C@@H](CCCCN)C(=O)N[C@@H](C)C(=O)N[C@@H](Cc1c[nH]c2ccccc12)C(=O)O (H-KKWLKLWKAW-OH) is ___ 50 µg/mL

====

System: Staphylococcus aureus
Test: Compound tested for the activity against Staphylococcus aureus strain 11
Format: functional
Peptide text beside a SMILES is read from it.
measurementName: MIC (µg/mL)
Expressed in µg/mL, but write only the number.

molecule="CC(C)C[C@H](NC(=O)[C@H](CCCCN)NC(=O)[C@H](CC(C)C)NC(=O)[C@H](Cc1c[nH]c2ccccc12)NC(=O)[C@H](CCCCN)NC(=O)[C@H](CCCCN)NC(=O)[C@H](C)NC(=O)[C@H](Cc1c[nH]c2ccccc12)NC(=O)[C@H](CCCCN)NC(=O)[C@H](CCCCN)NC(=O)[C@H](Cc1c[nH]c2ccccc12)NC(=O)[C@H](CC(C)C)NC(=O)[C@@H](N)CCCCN)C(=O)N[C@@H](Cc1c[nH]c2ccccc12)C(=O)N[C@@H](CCCCN)C(=O)N[C@@H](C)C(=O)N[C@@H](Cc1c[nH]c2ccccc12)C(=O)O (H-KLWKKWAKKWLKLWKAW-OH)" quantitativeresult=25
molecule="CC(C)C[C@H](NC(=O)[C@H](CCCCN)NC(=O)[C@H](CC(C)C)NC(=O)[C@H](Cc1ccccc1)NC(=O)[C@H](CCCCN)NC(=O)[C@H](CCCCN)NC(=O)[C@H](C)NC(=O)[C@H](Cc1ccccc1)NC(=O)[C@H](CCCCN)NC(=O)[C@H](CCCCN)NC(=O)[C@H](Cc1ccccc1)NC(=O)[C@H](CC(C)C)NC(=O)[C@@H](N)CCCCN)C(=O)N[C@@H](Cc1ccccc1)C(=O)N[C@@H](CCCCN)C(=O)N[C@@H](C)C(=O)N[C@@H](Cc1c[nH]c2ccccc12)C(=O)O (H-KLFKKFAKKFLKLFKAW-OH)" quantitativeresult=25

We now examine a further molecule.
Return reported MIC; argument: CC(C)C[C@H](NC(=O)[C@H](Cc1c[nH]c2ccccc12)NC(=O)[C@H](CCCCN)NC(=O)[C@H](CCCCN)NC(=O)[C@@H](N)Cc1c[nH]c2ccccc12)C(=O)N[C@@H](Cc1c[nH]c2ccccc12)C(=O)N[C@@H](C)C(=O)N[C@@H](CCCCN)C(=O)N[C@@H](Cc1c[nH]c2ccccc12)C(=O)O (H-WKKWLWAKW-OH) 50

====

Below, each entry is listed alongside its reported MIC.
Test system: Proteus mirabilis
Experiment: Compound tested for the antimicrobial activity against Proteus mirabilis
Type: functional
Peptide text beside a SMILES is read from it.

compound="CC(C)C[C@H](NC(=O)[C@H](C)NC(=O)[C@H](CCCCN)NC(=O)[C@H](C)NC(=O)[C@H](CC(C)C)NC(=O)[C@H](CCCCN)NC(=O)[C@H](C)NC(=O)[C@H](CC(C)C)NC(=O)[C@H](CCCCN)NC(=O)[C@H](C)NC(=O)[C@H](CC(C)C)NC(=O)[C@H](CCCCN)NC(=O)[C@H](CCCCN)NC(=O)[C@H](C)NC(=O)[C@H](CC(C)C)NC(=O)[C@@H](N)CCCCN)C(=O)O (H-KLAKKLAKLAKLAKAL-OH)" result="> 100 mg/L"
compound="CC(C)C[C@H](NC(=O)[C@H](CCCCN)NC(=O)[C@H](CC(C)C)NC(=O)[C@H](Cc1ccccc1)NC(=O)[C@H](CCCCN)NC(=O)[C@H](CCCCN)NC(=O)[C@H](C)NC(=O)[C@H](Cc1ccccc1)NC(=O)[C@H](CCCCN)NC(=O)[C@H](CCCCN)NC(=O)[C@H](Cc1ccccc1)NC(=O)[C@H](CC(C)C)NC(=O)[C@@H](N)CCCCN)C(=O)N[C@@H](Cc1ccccc1)C(=O)N[C@@H](CCCCN)C(=O)N[C@@H](C)C(=O)N[C@@H](Cc1c[nH]c2ccccc12)C(=O)O (H-KLFKKFAKKFLKLFKAW-OH)" result="> 100 mg/L"

Requested read-out: MIC. Entry: CC(C)C[C@H](NC(=O)[C@H](CCCCN)NC(=O)[C@H](CC(C)C)NC(=O)[C@H](Cc1c[nH]c2ccccc12)NC(=O)[C@H](CCCCN)NC(=O)[C@@H](N)CCCCN)C(=O)N[C@@H](Cc1c[nH]c2ccccc12)C(=O)N[C@@H](CCCCN)C(=O)N[C@@H](C)C(=O)N[C@@H](Cc1c[nH]c2ccccc12)C(=O)O (H-KKWLKLWKAW-OH) > 100 mg/L

====

Here, each record is paired with measured MIC data.
Test system: Staphylococcus aureus
Experiment: Compound tested for the activity against Staphylococcus aureus strain 7
Assay type: functional
Peptide text beside a SMILES is read from it.
Reply numerically in µg/mL, unit not repeated.

Record request: MIC value, item CC(C)C[C@H](NC(=O)[C@H](Cc1c[nH]c2ccccc12)NC(=O)[C@H](CCCCN)NC(=O)[C@H](CCCCN)NC(=O)[C@@H](N)Cc1c[nH]c2ccccc12)C(=O)N[C@@H](Cc1c[nH]c2ccccc12)C(=O)N[C@@H](C)C(=O)N[C@@H](CCCCN)C(=O)N[C@@H](Cc1c[nH]c2ccccc12)C(=O)O (H-WKKWLWAKW-OH) 25

Given CC(C)C[C@H](NC(=O)[C@H](CCCCN)NC(=O)[C@H](CC(C)C)NC(=O)[C@H](Cc1ccccc1)NC(=O)[C@H](CCCCN)NC(=O)[C@H](CCCCN)NC(=O)[C@H](C)NC(=O)[C@H](Cc1ccccc1)NC(=O)[C@H](CCCCN)NC(=O)[C@H](CCCCN)NC(=O)[C@H](Cc1ccccc1)NC(=O)[C@H](CC(C)C)NC(=O)[C@@H](N)CCCCN)C(=O)N[C@@H](Cc1ccccc1)C(=O)N[C@@H](CCCCN)C(=O)N[C@@H](C)C(=O)N[C@@H](Cc1c[nH]c2ccccc12)C(=O)O (H-KLFKKFAKKFLKLFKAW-OH) , state its recorded MIC. 25
